B1: TRIM9 (parent)
chain: PRNSCITCPQCHRSLILDDRGLRG

# Variants of: B1
# Experiment description: protein stability index of a GFP-peptide fusion (GPS, HEK-293T) (PSI 1-6); higher = more stable;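 also: lentivirally expressed fusions sorted by FACS into six bins by GFP to DsRed ratio, PSI derived from sequencing read proportions per bin multiplied by bin number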
# Settings: c terminus: a fixed tail appended
Catalogue of variants with associated protein stability index
Format: numeric value only, no unit, no commentary.

For orientation, consider the following solved cases.
{"columns": ["Input sequence", "Recorded number"],
 "data": [
  ["PRNSCITCPQCFRSLILDDRGLRG [H12F]", 2.2],
  ["PRNFCITCPQCHRSLILDDRGLRG [S4F]", 2.31]
]}

[ask] Which protein stability index value belongs to PHNSCITCPQCHRSLILDDRGLRG [R2H] ?
[reply] 2.29

[ask] Which protein stability index value belongs to PRNSCITCPQCHRFLILDDRGLRG [S14F] ?
[reply] 1.91

[ask] Which protein stability index value belongs to PRNSCITCPQCHRSLILDDRGLRY [G24Y] ?
[reply] 1.84

[ask] Which protein stability index value belongs to PRNSCITCPQCPRSLILDDRGLRG [H12P] ?
[reply] 2.52

[ask] Which protein stability index value belongs to PRNSCITCPACHRSLILDDRGLRG [Q10A] ?
[reply] 2.37

[ask] Which protein stability index value belongs to PRNSCITCPQCHRSLIYDDRGLRG [L17Y] ?
[reply] 2.11

[ask] Which protein stability index value belongs to PRNSCITCPQCHRSLILMDRGLRG [D18M] ?
[reply] 2.57
